Biological target: UniProt:A0A286XH07
Sequence (A0A286XH07 24-426): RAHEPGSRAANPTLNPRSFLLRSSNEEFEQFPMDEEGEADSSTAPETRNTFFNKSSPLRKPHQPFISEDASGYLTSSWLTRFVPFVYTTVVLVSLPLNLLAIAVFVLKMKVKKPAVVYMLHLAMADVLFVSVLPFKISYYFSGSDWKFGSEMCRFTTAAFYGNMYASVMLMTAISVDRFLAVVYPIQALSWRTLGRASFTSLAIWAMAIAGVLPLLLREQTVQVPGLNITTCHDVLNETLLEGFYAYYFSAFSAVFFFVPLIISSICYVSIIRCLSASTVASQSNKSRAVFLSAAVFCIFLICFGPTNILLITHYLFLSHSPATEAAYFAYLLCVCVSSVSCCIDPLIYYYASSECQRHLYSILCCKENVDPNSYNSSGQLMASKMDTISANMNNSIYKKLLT
Settings: average concentration ratio relative to P5 causing equal contractile response (REC = EC TRP ÷ EC P5)
Residues, ends and D or L forms follow the SMILES beside them.
reported metric: Relative potency (REC) GLM
Give bare numbers.

Use the examples below as a reference point.
Exam item: For the molecule CC(C)C[C@H](NC(=O)[C@H](CC(C)C)NC(=O)[C@H](Cc1ccccc1)NC(=O)[C@@H](N)CO)C(=O)N[C@@H](CCCNC(=N)N)C(=O)N[C@@H](CC(N)=O)C(=O)N1CCC[C@H]1C(=O)O [P7, S42 FLLRNP48] (H-SFLLRNP-OH) , what Relative potency (REC) GLM is on record?
Marked response: 0.4

Exam item: For the molecule CC(C)C[C@H](NC(=O)[C@H](CC(C)C)NC(=O)[C@H](Cc1ccccc1)NC(=O)[C@@H](N)CO)C(=O)N[C@@H](CCCNC(=N)N)C(N)=O [P5-NH-2, S42 FLLR46 -amide] , what Relative potency (REC) GLM is on record?
Marked response: 0.1

Parameter requested: Relative potency (REC) GLM. Apply to each item below.
1. CC(C)C[C@H](NC(=O)[C@H](CC(C)C)NC(=O)[C@H](Cc1ccccc1)NC(=O)[C@@H](N)CO)C(=O)N[C@@H](CCCNC(=N)N)C(=O)N[C@@H](CC(N)=O)C(=O)N1CCC[C@H]1C(N)=O [P7-NH2, S42 FLLRNP48 -amide] (H-SFLLRNP-NH2)
2. CC(C)C[C@H](NC(=O)[C@H](CC(C)C)NC(=O)[C@H](Cc1ccccc1)NC(=O)[C@@H](N)CO)C(=O)N[C@@H](CCCNC(=N)N)C(=O)O [P5, S42 FLLR46, reference compound]

Marked response:
1: 0.04; 2: 1

* * *

Target: thrombin receptor (guinea pig gastric longitudinal muscle strips) (Cavia porcellus, UniProt A0A286XH07)
Source text: The guinea pig gastric longitudinal muscle (GLM) strips and the rat thoracic aorta (RA) ring preparations were isolated as previously described 14, 15. […] Contractions were monitored isometrically using Statham force-displacement transducers. […]
Residues, ends and D or L forms follow the SMILES beside them. *: point of attachment. Propionyl = CCC(=O)*
Exercise: state measured Relative potency (REC) GLM for each of the molecules provided.
Answers are plain numbers.

Exam item: For the molecule CC(C)C[C@H](NC(=O)[C@H](CC(C)C)NC(=O)[C@H](Cc1ccccc1)NC(=O)[C@@H](N)CO)C(=O)N[C@@H](CCCCN)C(=O)O [PK5, S42 FLLK46] (H-SFLLK-OH) , what Relative potency (REC) GLM is on record?
Marked response: 4.5

Exam item: For the molecule CC(C)C[C@H](NC(=O)[C@H](CC(C)C)NC(=O)[C@H](Cc1ccccc1)NC(=O)[C@H](C)N)C(=O)N[C@@H](CCCNC(=N)N)C(=O)O [AP5, A42 FLLR46] (H-AFLLR-OH) , what Relative potency (REC) GLM is on record?
Marked response: 1.8

Exam item: For the molecule COC(=O)[C@H](CCCNC(=N)N)NC(=O)[C@H](CC(C)C)NC(=O)[C@H](CC(C)C)NC(=O)[C@H](Cc1ccccc1)NC(=O)[C@@H](N)CO , what Relative potency (REC) GLM is on record?
Marked response: 0.1

Continuing:
Exam item: For the molecule CCC(=O)N[C@@H](Cc1ccccc1)C(=O)N[C@@H](CC(C)C)C(=O)N[C@@H](CC(C)C)C(=O)N[C@@H](CCCNC(=N)N)C(=O)O [Pr-P4, N-propionyl-F43 LLR46] (Propionyl-FLLR-OH) , what Relative potency (REC) GLM is on record?
Marked response: 1

* * *

Biological target: thrombin receptor (rat gastric longitudinal muscle strips) (Rattus norvegicus)
Construct: Rat gastric LM strips (3×10 mm) were obtained; from tissue; host or cells: rat (Sprague Dawley) gastric longitudinal muscle strips
Sequence (P26824 22-432): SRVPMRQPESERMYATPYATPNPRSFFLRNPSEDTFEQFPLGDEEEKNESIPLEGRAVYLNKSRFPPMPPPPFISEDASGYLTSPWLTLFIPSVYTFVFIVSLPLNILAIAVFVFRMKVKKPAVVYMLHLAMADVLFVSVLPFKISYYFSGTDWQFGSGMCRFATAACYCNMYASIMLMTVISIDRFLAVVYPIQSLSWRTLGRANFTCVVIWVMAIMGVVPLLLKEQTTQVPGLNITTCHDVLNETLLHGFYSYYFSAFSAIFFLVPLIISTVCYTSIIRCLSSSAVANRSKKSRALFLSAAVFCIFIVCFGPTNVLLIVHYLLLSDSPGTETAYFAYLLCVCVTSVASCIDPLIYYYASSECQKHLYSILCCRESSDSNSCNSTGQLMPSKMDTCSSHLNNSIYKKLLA
Assay: Rat gastric longitudinal muscle (RLM) strip contractile assay
Assay type: cell-based
Residues, ends and D or L forms follow the SMILES beside them.
reported metric: Relative potency (REC) RLM
Numbers only.

Use the examples below as a reference point.
Exam item: For the compound CC(C)C[C@H](NC(=O)[C@H](Cc1ccccc1)NC(=O)[C@H](Cc1ccccc1)NC(=O)[C@@H](N)CO)C(=O)N[C@@H](CCCNC(=N)N)C(N)=O [Ra-P5-NH2, SFFLR-amide] (H-SFFLR-NH2) , what Relative potency (REC) RLM is on record?
Marked response: 0.07

Exam item: For the compound CC(C)C[C@H](NC(=O)[C@H](CC(C)C)NC(=O)[C@H](Cc1ccccc1)NC(=O)[C@@H](N)CO)C(=O)N[C@@H](CCCN=C(N)N)C(=O)N[C@@H](CC(N)=O)C(=O)N1CCC[C@H]1C(=O)O [P7, S42 FLLRNP48] (H-SFLLRNP-OH) , what Relative potency (REC) RLM is on record?
Marked response: 0.3

Exam item: For the compound CC(C)C[C@H](NC(=O)[C@H](Cc1ccccc1)NC(=O)[C@H](Cc1ccccc1)NC(=O)[C@@H](N)CO)C(=O)N[C@@H](CCCNC(=N)N)C(=O)N[C@@H](CC(N)=O)C(=O)N1CCC[C@H]1C(=O)O [Ra-P7, SFFLRNP] (H-SFFLRNP-OH) , what Relative potency (REC) RLM is on record?
Marked response: 0.3

Parameter requested: Relative potency (REC) RLM. Apply to each item below.
1. CC(C)C[C@H](NC(=O)[C@H](Cc1ccccc1)NC(=O)[C@H](Cc1ccccc1)NC(=O)[C@@H](N)CO)C(=O)N[C@@H](CCCNC(=N)N)C(=O)O [Ra-P5, SFFLR] (H-SFFLR-OH)
2. CC(C)C[C@H](NC(=O)[C@H](CC(C)C)NC(=O)[C@H](Cc1ccccc1)NC(=O)[C@@H](N)CO)C(=O)N[C@@H](CCCN=C(N)N)C(=O)N[C@@H](CC(N)=O)C(=O)N1CCC[C@H]1C(N)=O [P7-NH2, S42 FLLRNP48 -amide] (H-SFLLRNP-NH2)
3. CC(C)C[C@H](NC(=O)[C@H](CC(C)C)NC(=O)[C@H](Cc1ccccc1)NC(=O)[C@@H](N)CO)C(=O)N[C@@H](CCCNC(=N)N)C(=O)O [P5, S42 FLLR46, reference compound]
4. CC(C)C[C@H](NC(=O)[C@H](CC(C)C)NC(=O)[C@H](Cc1ccccc1)NC(=O)[C@@H](N)CO)C(=O)N[C@@H](CCCNC(=N)N)C(N)=O [P5-NH-2, S42 FLLR46 -amide]

Marked response:
1.0
0.1
1
0.2

* * *

Test system: thrombin receptor (rat thoracic aorta rings, intact endothelium)
Conditions: average concentration ratio relative to P5 causing equal relaxation response (REC = EC TRP ÷ EC P5)
Residues, ends and D or L forms follow the SMILES beside them.
Relative potency (REC) RA strictly less than 0.2 = y. Otherwise n.

Exam item: Regarding CC(C)C[C@H](NC(=O)[C@H](CC(C)C)NC(=O)[C@H](Cc1ccccc1)NC(=O)[C@@H](N)CO)C(=O)N[C@@H](CCCNC(=N)N)C(=O)N[C@@H](CC(N)=O)C(=O)N1CCC[C@H]1C(=O)O [P7, S42 FLLRNP48] (H-SFLLRNP-OH) , kindly confirm whether its Relative potency (REC) RA is beneath 0.2.
Marked response: n

Continuing:
Exam item: Regarding CC(C)C[C@H](NC(=O)[C@H](CC(C)C)NC(=O)[C@H](Cc1ccccc1)NC(=O)[C@@H](N)CO)C(=O)N[C@@H](CCCNC(=N)N)C(N)=O [P5-NH-2, S42 FLLR46 -amide] , kindly confirm whether its Relative potency (REC) RA is beneath 0.2.
Marked response: y

Exam item: Regarding CC(C)C[C@H](NC(=O)[C@H](Cc1ccccc1)NC(=O)[C@H](Cc1ccccc1)NC(=O)[C@@H](N)CO)C(=O)N[C@@H](CCCNC(=N)N)C(=O)O [Ra-P5, SFFLR] (H-SFFLR-OH) , kindly confirm whether its Relative potency (REC) RA is beneath 0.2.
Marked response: n

Exam item: Regarding CC(C)C[C@H](NC(=O)[C@H](CC(C)C)NC(=O)[C@H](Cc1ccccc1)NC(=O)[C@@H](N)CO)C(=O)N[C@@H](CCCNC(=N)N)C(=O)N[C@@H](CC(N)=O)C(=O)N1CCC[C@H]1C(N)=O [P7-NH2, S42 FLLRNP48 -amide] (H-SFLLRNP-NH2) , kindly confirm whether its Relative potency (REC) RA is beneath 0.2.
Marked response: y

Exam item: Regarding CC(C)C[C@H](NC(=O)[C@H](CC(C)C)NC(=O)[C@H](Cc1ccccc1)NC(=O)[C@@H](N)CO)C(=O)N[C@@H](CCCNC(=N)N)C(=O)O [P5, S42 FLLR46, reference compound] , kindly confirm whether its Relative potency (REC) RA is beneath 0.2.
Marked response: n

Exam item: Regarding CC(C)C[C@H](NC(=O)[C@H](Cc1ccccc1)NC(=O)[C@H](Cc1ccccc1)NC(=O)[C@@H](N)CO)C(=O)N[C@@H](CCCNC(=N)N)C(=O)N[C@@H](CC(N)=O)C(=O)N1CCC[C@H]1C(=O)O [Ra-P7, SFFLRNP] (H-SFFLRNP-OH) , kindly confirm whether its Relative potency (REC) RA is beneath 0.2.
Marked response: n
